Target: T1, HPVHHYQ-NH2 peptide
T1 chain: HPVHHYQ-NH2
Assay: ITC
Ends that are not written are not given here.
readout: Kd
Provide the measurement as a number trailed by its unit.

Which Kd value is on record for GGCGUCACACCUUCGGGUGAAGUCGCC (structured_RNA) [hp-AS] ?
2000 nM
